# experimentalTarget: Histone deacetylase 8 (Homo sapiens, UniProt Q9BY41)
# Sequence (Q9BY41 whole entry): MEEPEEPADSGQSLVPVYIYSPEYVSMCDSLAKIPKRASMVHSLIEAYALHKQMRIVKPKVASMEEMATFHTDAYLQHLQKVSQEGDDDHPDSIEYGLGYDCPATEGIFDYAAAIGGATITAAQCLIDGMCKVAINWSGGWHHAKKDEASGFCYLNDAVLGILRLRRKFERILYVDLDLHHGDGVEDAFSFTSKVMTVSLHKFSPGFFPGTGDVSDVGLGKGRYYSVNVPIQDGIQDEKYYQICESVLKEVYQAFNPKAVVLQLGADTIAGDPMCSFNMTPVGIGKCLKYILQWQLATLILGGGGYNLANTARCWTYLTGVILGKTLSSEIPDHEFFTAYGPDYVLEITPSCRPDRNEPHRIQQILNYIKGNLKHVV
# testMethodNotes: Inhibition of recombinant human HDAC8 by fluorimetry
pIC50: −log10 of the molar value.
measurementLabel: pIC50

Known pIC50 results, listed for orientation:
Q: // lookup pIC50 for CN(/N=C/c1cccc(C(=O)NO)c1)C(=O)c1ccc(N(C)C)cc1
Ans: 5.70

Q: // lookup pIC50 for CN(C)c1ccc(C(=O)N/N=C/c2ccc(C(=O)NO)cc2)cc1
Ans: 6.64

Q: // lookup pIC50 for C/C(=N\N(C)C(=O)c1ccc(N(C)C)cc1)c1ccc(C(=O)NO)cc1
Ans: 7.27

a. CN(/N=C/c1ccc(C(=O)NO)cc1)C(=O)c1ccc(N(C)C)cc1
b. CN(C)c1ccc(C(=O)N/N=C/c2cccc(C(=O)NO)c2)cc1
Q: Identify the entry with the smaller pIC50: a or b . Kindly state the label of the option you pick.
Ans: b

====

# experimentalTarget: Histone deacetylase (Rattus norvegicus) (UniProt Q6P6W3+Q99P99+Q99P96+Q4QQW4+Q99P97+Q5RJZ2+B1WBY8)
# testMethodNotes: Inhibition of HDAC in rat liver at 1 uM by fluorimetry
measurementLabel: inhibition (%)

Q: // lookup inhibition for CN(/N=C/c1ccc(C(=O)NO)cc1)C(=O)c1ccc(N(C)C)cc1
Ans: 90.4

Q: // lookup inhibition for CN(C)c1ccc(C(=O)N/N=C/c2cccc(C(=O)NO)c2)cc1
Ans: 66

Q: // lookup inhibition for COC(=O)c1cccc(/C=N/NC(=O)c2ccc(N(C)C)cc2)c1
Ans: -4.6

Q: // lookup inhibition for CN(C)c1ccc(C(=O)N/N=C/c2ccc(C(=O)O)cc2)cc1
Ans: -9.1

I. CN(/N=C/c1cccc(C(=O)O)c1)C(=O)c1ccc(N(C)C)cc1
II. CN(C)c1ccc(C(=O)N/N=C/c2ccc(C(=O)NO)cc2)cc1
III. CN(/N=C/c1ccc(C(=O)O)cc1)C(=O)c1ccc(N(C)C)cc1
IV. CN(/N=C/c1cccc(C(=O)NO)c1)C(=O)c1ccc(N(C)C)cc1
Q: Sort by inhibition, descending. A ranking is expressed here by listing the labels in the requested order.
Ans: II, IV, I, III
(II: 90.4%, IV: 33.4%, I: -5.8%, III: -8.7%)

====

# testMethodNotes: Aqueous solubility of the compound in buffer at pH 7.4 after 24 hrs by spectrophotometric method
# Format: physicochemical
Measured solubility at 24 h, listed per entry for reference.

Known solubility at 24 h results, listed for orientation:
Q: // lookup solubility at 24 h for CN(/N=C/c1cccc(C(=O)O)c1)C(=O)c1ccc(N(C)C)cc1
Ans: > 67 µM

Q: // lookup solubility at 24 h for CN(C)c1ccc(C(=O)N/N=C/c2cccc(C(=O)O)c2)cc1
Ans: > 70 µM

Q: // lookup solubility at 24 h for COC(=O)c1cccc(/C=N/N(C)C(=O)c2ccc(N(C)C)cc2)c1
Ans: 8.2 µM

More entries:
Q: // lookup solubility at 24 h for CN(/N=C/c1ccc(C(=O)O)cc1)C(=O)c1ccc(N(C)C)cc1
Ans: > 67 µM

====

# testMethodNotes: Aqueous solubility of the compound in buffer at pH 7.4 after 24 hrs by spectrophotometric method
# Format: physicochemical
measurementLabel: solubility at 24 h (µM)

Q: // lookup solubility at 24 h for COC(=O)c1ccc(/C=N/N(C)C(=O)c2ccc(N(C)C)cc2)cc1
Ans: 1.4

1. C/C(=N\N(C)C(=O)c1ccc(N(C)C)cc1)c1ccc(C(=O)NO)cc1
2. COC(=O)c1ccc(/C=N/NC(=O)c2ccc(N(C)C)cc2)cc1
Q: Identify the entry with the smaller solubility at 24 h: 1 or 2 . Kindly state the label of the option you pick.
Ans: 2
(2: 1.7 µM, 1: 122 µM)

====

# testMethodNotes: Aqueous solubility of the compound in buffer at pH 7.4 after 24 hrs by spectrophotometric method
# Format: physicochemical
Measured solubility at 24 h, listed per entry for reference.

Q: // lookup solubility at 24 h for CN(C)c1ccc(C(=O)N/N=C/c2ccc(C(=O)O)cc2)cc1
Ans: > 77 µM

Q: // lookup solubility at 24 h for CN(/N=C/c1ccc(C(=O)NO)cc1)C(=O)c1ccc(N(C)C)cc1
Ans: > 64 µM

Q: // lookup solubility at 24 h for CN(/N=C/c1cccc(C(=O)NO)c1)C(=O)c1ccc(N(C)C)cc1
Ans: > 70 µM

# next compound below
Q: // lookup solubility at 24 h for CN(C)c1ccc(C(=O)N/N=C/c2cccc(C(=O)NO)c2)cc1
Ans: > 67 µM
